# protocol_text: chemical genetic growth profiling, strain panel (AID 1159580);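 note: tested at 20 µM; growth read once vehicle control cultures reached saturation at 30 °C; 1 = growth at the plate median or of vehicle wells; lower values mean less growth of the strain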
# settings: S. cerevisiae deletion strains, growth OD, locus YLR357W, strain rsc2, active compounds read low
Hit rate of the full screen: of about 5,500 compounds, about 2,000 (36%) were called active. Another 18% or so got no clear call; they are omitted. The list shows a part of the results.
property_label: normalized growth

> print(dat)
                                   molecule     property.label  observed.value
1  C=C(C)C1CNC(C(=O)O)C1CC(=O)O (centres undefined)  normalized growth           0.975
2    NCC1CCC(C(=O)O)CC1 (centres undefined)  normalized growth           0.996
3  CC(=O)OC(C)(C)[C@@H]1Cc2cc3ccc(=O)oc3cc2O1  normalized growth           0.971
4  CC(C)(O)[C@@H]1[C@H]2OC(=O)[C@@H]1[C@]1(O)C[C@H]3O[C@]34C(=O)O[C@H]2[C@]14C  normalized growth            1.02

###

# protocol_text: chemical genetic growth profiling, strain panel (AID 1159580);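 note: tested at 20 µM; growth read once vehicle control cultures reached saturation at 30 °C; 1 = growth at the plate median or of vehicle wells; lower values mean less growth of the strain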
# settings: S. cerevisiae deletion strains, growth OD, locus YJR043C, strain POL32, active compounds read low
The campaign covered roughly 5,500 compounds. About 2,000 (36%) were called active. Inconclusive results (about 18%) are left out. The list shows a part of the results.

compound	normalized growth
CCOC(=O)C(=CNc1cccc(C#N)c1)C(=O)OCC	1.02 (inactive)
CC(=O)OCC(=O)[C@@]1(O)CCC2C3CCC4=CC(=O)CC[C@]4(C)C3C(=O)C[C@@]21C (stereo partly drawn)	0.993 (inactive)
c1ccc(N=Nc2ccc(Nc3ccccc3)cc2)cc1	0.91 (active)
CCCCNc1cc(C(=O)O)cc(S(N)(=O)=O)c1Oc1ccccc1	1 (inactive)
C=C1C2CC[C@H]3[C@]4(C)C[C@H](OC5OC(CO)C(OS(=O)(=O)O)C(OS(=O)(=O)O)C5OC(=O)CC(C)C)C[C@@H](C(=O)O)[C@H]4CC[C@]3(C2)[C@H]1O (stereo partly drawn)	1 (inactive)
CCOC(=O)CCC(=O)O[C@H]1[C@H](O[C@@H]2[C@@H](C)[C@H](O[C@H]3C[C@@](C)(OC)[C@@H](O)[C@H](C)O3)[C@@H](C)C(=O)O[C@H](CC)[C@@](C)(O)[C@H](O)[C@@H](C)C(=O)[C@H](C)C[C@@]2(C)O)O[C@H](C)C[C@@H]1N(C)C	0.963 (inactive)
COc1ccc2c(c1)OCc1c-2oc2cc(OC)ccc12	0.953 (inactive)
CCC(=O)O[C@H]1CCC2C3CCC4=CC(=O)CC[C@]4(C)C3CC[C@@]21C (stereo partly drawn)	0.928 (inactive)

###

# protocol_text: chemical genetic growth profiling, strain panel (AID 1159580);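 note: tested at 20 µM; growth read once vehicle control cultures reached saturation at 30 °C; 1 = growth at the plate median or of vehicle wells; lower values mean less growth of the strain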
# settings: S. cerevisiae deletion strains, growth OD, locus YDL101C, strain DUN1, active compounds read low
Hit rate of the full screen: of about 5,500 compounds, about 2,000 (36%) were called active. About 18% were inconclusive and are not listed. Some of the results follow.
property_label: normalized growth

> print(dat)
                                    molecule  observed.value
 1               Cc1cc(Cl)ccc1NNC(=O)c1ccno1           0.967
 2                     COP(=O)(OC)OC=C(Cl)Cl           0.964
 3  COc1cc2c(cc1OC)[C@@H]1C(=O)c3ccc4oc(C(C)C)cc4c3O[C@@H]1CO2            1.01
 4             Cc1nnsc1C(=O)NNc1c(Cl)cccc1Cl           0.993
 5       COc1ccc(/C=C2\CSc3ccc(F)cc3C2=O)cc1           0.968
 6  CC1=C(/C=C/C(C)=C/C=C/C(C)=C/C=C/C=C(C)/C=C/C=C(C)/C=C/C2=C(C)C(=O)C(O)CC2(C)C)C(C)(C)CC(O)C1=O (stereo not drawn)           0.986
 7  C[C@@H]1[C@H]2[C@H](O[C@@H]3O[C@H](CO)[C@@H](O)[C@H](O)[C@H]3O)OC=C(C(=O)O)[C@H]2C[C@@H]1O            0.98
 8     Cc1cc(NNC(=O)c2ccccc2Cl)nc2c1c(C)nn2C           0.994
 9  CC1=C(CC(=O)O)c2cc(F)ccc2/C1=C\c1ccc(S(C)=O)cc1 (stereo not drawn)            1.01
10  COc1cc2c(cc1OC)[C@@H]1C(=O)c3ccc4c(c3O[C@@H]1CO2)C=CC(C)(C)O4           0.976
11  COCCc1ccc(OCC(O)CNC(C)C)cc1 (stereo not drawn)            1.02
12       CCOc1ccc(/C=C(\C#N)c2cccc(Cl)c2)cc1            1.01
13       CC(=O)NC1SCCC1=O (stereo not drawn)            1.01

###

# protocol_text: chemical genetic growth profiling, strain panel (AID 1159580);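 note: tested at 20 µM; growth read once vehicle control cultures reached saturation at 30 °C; 1 = growth at the plate median or of vehicle wells; lower values mean less growth of the strain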
# settings: S. cerevisiae deletion strains, growth OD, locus YER002W, strain NOP16, active compounds read low
Screen size: about 5,500 compounds; about 2,000 (36%) were called active. Another 18% or so got no clear call; they are omitted. The list shows a part of the results.
property_label: normalized growth

> print(dat)
                                    molecule  observed.value
 1                        CP(=O)(O)C1=CCNCC1           0.997
 2  C=CCN1C[C@@H](C)N([C@H](c2ccc(C(=O)N(CC)CC)cc2)c2cccc(OC)c2)C[C@@H]1C           0.999
 3                                  NNC(N)=O            1.01
 4                     O=c1onc2cnc3ccccc3n12               1
 5  O=C1O/C(=C/Br)CCC1c1cccc2ccccc12 (stereo not given)            1.01
 6  CN1CCc2c(cc(O)c(O)c2Cl)C(c2cccc(Cl)c2)C1 (stereo not given)            1.01
 7  COc1ccc(OC)c(C(O)C(C)N)c1 (stereo not given)           0.993
 8    COc1ccc(CCNC[C@@H](O)c2ccc(O)cc2)cc1OC            1.01
 9       CC(C)(C)NC[C@H](O)COc1nsnc1N1CCOCC1           0.998
10  CC(C)OC(=O)C(C)(C)Oc1ccc(C(=O)c2ccc(Cl)cc2)cc1               1
11                        CNCCc1ccc(O)c(O)c1               1
12  CCN(CC)CCCC(C)Nc1c2ccc(Cl)cc2nc2ccc(OC)cc12 (stereo not given)               1
13  C=Cc1c2[nH]c(c1C)Cc1[nH]c(c(C)c1C=C)C=C1N=C(C=c3[nH]c(c(C)c3CCC(=O)O)=C2)C(CCC(=O)O)=C1C           0.987
14          C[N+](C)(C)CCCCCCCCCC[N+](C)(C)C           0.995
15  C[C@]12CCC(=O)C=C1CC[C@@H]1[C@@H]2CC[C@]2(C)C(=O)CC[C@@H]12            0.99
16  C=CCN1CCc2c(cc(O)c(O)c2Br)[C@@H](c2ccccc2)C1               1
17  CN1CCc2cc(O)c(O)cc2C(c2ccccc2)C1 (stereo not given)               1
18  CC(C(=O)O)c1cccc(C(=O)c2ccccc2)c1 (stereo not given)           0.992
19  CCOC(=O)C12CC1/C(=N\O)c1ccccc1O2 (stereo not given)            1.02
20  CC(C)(C)c1onc(OCP(=O)(O)O)c1CC(N)C(=O)O (stereo not given)           0.996
21  CC(CCc1ccc(O)cc1)NCCc1ccc(O)c(O)c1 (stereo not given)           0.993
22    Cc1nc2c([nH]1)c(=O)n(C)c(=O)n2Cc1ccco1           0.998
23  CCN(CC)CCCC(C)Nc1ccnc2cc(Cl)ccc12 (stereo not given)           0.994
24  CC(CCc1ccccc1)NC(C)C(O)c1ccc(O)cc1 (stereo not given)               1
25  CC(=O)[C@H]1CC[C@H]2[C@@H]3CCC4=CC(=O)CC[C@]4(C)[C@H]3CC[C@]12C           0.973
26  CCC(NC(C)C)C(O)c1ccc(O)c(O)c1 (stereo not given)            1.01
27                    C[N+](C)(C)CCOC(=O)CBr               1
28                      C[N+](C)(C)CCOC(N)=O           0.986
29  Oc1ccc(C2CNCCc3c2cc(O)c(O)c3Cl)cc1 (stereo not given)           0.997
30  C=CCN1CCc2c(cc(O)c(O)c2Cl)C(c2ccccc2)C1 (stereo not given)           0.996
31  CC(=O)OCC1=C(C(=O)O)N2C(=O)C(NC(=O)CSc3ccncc3)C2SC1 (stereo not given)            1.02
32                       CN(N=O)c1cc(O)ccc1O               1
33                             Cn1cnc(CCN)c1            0.98
34  O=C1NCN(c2ccccc2)C12CCN(CC1COc3ccccc3O1)CC2 (stereo not given)            1.02
35  C[C@@H](NCCc1ccc(O)cc1)[C@@H](O)c1ccc(O)cc1           0.992
36                 CCCN(CCC)CCc1ccc(O)c(O)c1            1.01
37                   CC(=O)NCCc1ccc(O)c(O)c1               1
38              CCOC(=O)C(C)(C)Oc1ccc(Cl)cc1           0.998
39        CN1CCC(=C2c3ccccc3C=Cc3ccccc32)CC1           0.995
40    COCc1nc2c([nH]1)c(=O)n(C)c(=O)n2CC(C)C            1.02

These data points were gathered from PubChem BioAssay AID1159580.
